Documented Ki across a set of molecules
- System tested: human 11b-hsd-1 (Homo sapiens)
- Measurement protocol: Inhibition constant Ki of human 11b-hsd-1 (3H-cortisone to 3H-cortisol conversion, HPLC)
- Assay type: biochemical
- Stated conditions: apparent Ki; read-out: Ki app
Recorded endpoint: Ki

Molecule	Reported value
O=C(NCc1ccccc1)[C@H]1CCCN1CC1CCCC1 [Example 226]	22 nM
CC(C)CN1[C@H]2CC[C@H](C2)[C@H]1C(=O)NC12CC3CC(CC(C3)C1)C2 (relative stereo) [Example 209]	1.9 nM
O=C(N[C@@H]1CCCc2ccccc21)[C@H]1CCCN1Cc1ccccc1 [Example 295]	4.5 nM
N#Cc1ccc(CN2CCOC[C@@H]2C(=O)NC2CCCCC2)cc1 [Example 306]	4.9 nM
CC(C)CN1CCOC[C@@H]1C(=O)N(C)C1CCCCC1 [Example 333]	4 nM
CC(C)CN1CCC[C@@H]1C(=O)N[C@H]1c2ccccc2C[C@H]1O [Example 288]	5.51 nM
Cc1ccccc1CNC(=O)[C@H]1CCCN1CCC(F)(F)F [Example 264]	10 nM
C[C@@H](NC(=O)[C@H]1CCCN1CC1CCCC1)c1ccccc1 [Example 292]	9.59 nM
N#Cc1ccccc1CN1CCOC[C@@H]1C(=O)N[C@@H]1CCc2ccccc21 [Example 305]	3.4 nM

----------
- System tested: human 11b-hsd-1 (Homo sapiens)
- Measurement protocol: Inhibition constant Ki of human 11b-hsd-1 (3H-cortisone to 3H-cortisol conversion, HPLC)
- Type: biochemical
- Stated conditions: apparent Ki; read-out: Ki app
Recorded endpoint: Ki (nM)

Compound	System tested	Quantity unit	Reported value
CC(C)CN1C[C@H](O)C[C@H]1C(=O)NC12CC3CC(CC(C3)C1)C2	human 11b-hsd-1 (Homo sapiens)	nM	11
COc1cc(F)ccc1O[C@@H]1CN[C@H](C(=O)NC2C3CC4CC(C3)CC2C4)C1 (stereo partly drawn)	human 11b-hsd-1 (Homo sapiens)	nM	4.9
N#Cc1ccc(CN2CCC[C@@H]2C(=O)NCc2ccccc2)cc1	human 11b-hsd-1 (Homo sapiens)	nM	110
CC(C)CN1CCC[C@@H]1C(=O)NCc1ccccc1F	human 11b-hsd-1 (Homo sapiens)	nM	5.1
O=C(NC1C2CC3CC(C2)CC1C3)[C@@H]1C[C@H](Oc2cc(F)c(F)c(F)c2)CN1 (stereo partly drawn)	human 11b-hsd-1 (Homo sapiens)	nM	1.1
Cc1ccc(CNC(=O)[C@H]2CCCN2CCC(F)(F)F)cc1	human 11b-hsd-1 (Homo sapiens)	nM	69
Cc1cccc(CNC(=O)[C@H]2CCCN2CC(C)C)c1	human 11b-hsd-1 (Homo sapiens)	nM	24
CCOc1cccc(O[C@@H]2CN[C@H](C(=O)NC3C4CC5CC(C4)CC3C5)C2)c1 (stereo partly drawn)	human 11b-hsd-1 (Homo sapiens)	nM	4.5
CN(C(=O)[C@H]1COCCN1Cc1ccccc1)C1CCCCC1	human 11b-hsd-1 (Homo sapiens)	nM	4.4

----------
- System tested: human 11b-hsd-1 (Homo sapiens, UniProt P28845)
- Sequence (P28845 whole entry): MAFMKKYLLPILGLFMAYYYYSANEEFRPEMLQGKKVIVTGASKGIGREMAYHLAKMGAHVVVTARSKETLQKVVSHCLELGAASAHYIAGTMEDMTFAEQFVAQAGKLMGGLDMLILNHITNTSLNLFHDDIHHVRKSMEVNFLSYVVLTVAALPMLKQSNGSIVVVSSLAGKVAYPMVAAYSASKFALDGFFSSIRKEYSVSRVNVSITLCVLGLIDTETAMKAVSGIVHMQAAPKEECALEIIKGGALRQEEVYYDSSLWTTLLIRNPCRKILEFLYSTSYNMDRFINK
- Measurement protocol: Inhibition constant Ki of human 11b-hsd-1 (3H-cortisone to 3H-cortisol conversion, HPLC)
- Assay type: biochemical
- Stated conditions: compound at 0.1 μM
Recorded endpoint: inhibition at 0.1 µM (%)

Compound	Reported value
CC(C)CN1CCC[C@@H]1C(=O)NCC1(O)CCCCC1 [Example 69]	100
O=C(NC1C2CC3CC(C2)CC1C3)[C@H]1CCCN1CC1CCNCC1 (stereo partly drawn) [Example 144]	87
O=C(NC1C2CC3CC(C2)CC1C3)[C@H]1C[C@@H](O)CN1CC1CCOCC1 (stereo partly drawn) [Example 48]	83
O=C(NC1C2CC3CC(C2)CC1C3)[C@H]1COCCN1CCN1CCCC1 (stereo partly drawn) [Example 70]	74
CC(=O)N1CCC(CN2CCC[C@@H]2C(=O)NC2C3CC4CC(C3)CC2C4)CC1 (stereo partly drawn) [Example 139]	100
O=C(NCc1ccccc1)[C@H]1CCCN1CC1CCCCC1 [Example 3]	92
O=C(NC12CC3CC(CC(C3)C1)C2)C1COCCN1CC1CCOCC1 (stereo not drawn) [Example 184]	100
NC1C[C@H](C(=O)NC2C3CC4CC(C3)CC2C4)N(CC2CCCC2)C1 (stereo partly drawn) [Example 45]	81
CN(C)CCCN1CCC[C@@H]1C(=O)NC1C2CC3CC(C2)CC1C3 (stereo partly drawn) [Example 108]	100

----------
# key: entry, value: Ki
- System tested: human 11b-hsd-1 (Homo sapiens, UniProt P28845)
- Measurement protocol: Inhibition constant Ki of human 11b-hsd-1 (3H-cortisone to 3H-cortisol conversion, HPLC)
- Type: biochemical
- Stated conditions: apparent Ki; read-out: Ki app

Compound	Ki [nM]
N#Cc1ccc(CN2CCC[C@@H]2C(=O)N[C@@H]2CCc3ccccc32)cc1 [Example 285]	7.82
O=C(NC1C2CC3CC(C2)CC1C3)[C@H]1NCC[C@@H]1C1CCCC1 (some centres unmarked) [Example 342]	9.9
O=C(NC1C2CC3CC(C2)CC1C3)[C@H]1NCC[C@@H]1CC1CCCCC1 (some centres unmarked) [Example 366]	15
CC(C)CN1[C@H]2CC[C@H](C2)[C@@H]1C(=O)NC12CC3CC(CC(C3)C1)C2 (relative stereo) [Example 210]	1
Cc1cc(O[C@@H]2CN[C@H](C(=O)NC3C4CC5CC(C4)CC3C5)C2)ccc1F (some centres unmarked) [Example 351]	1
N#Cc1ccc(CN2CCC[C@@H]2C(=O)NCC2CCCCC2)cc1 [Example 328]	3.2
CC(C)CN1CCC[C@@H]1C(=O)NCc1ccc(F)cc1F [Example 238]	16.3
O=C(NC1C2CC3CC(C2)CC1C3)[C@H]1CNC[C@H](c2ccccc2)C1 (some centres unmarked) [Example 346]	18

----------
- System tested: human 11b-hsd-1 (Homo sapiens)
- Measurement protocol: Inhibition constant Ki of human 11b-hsd-1 (3H-cortisone to 3H-cortisol conversion, HPLC)
- Assay type: biochemical
- Stated conditions: apparent Ki, human 11b-hsd-1; read-out: Ki app
pKi: −log10 of the molar value.
Examples of compounds with documented pKi follow.

Compound	pKi
CN(C(=O)[C@H]1COCCN1CC1CCCCC1)C1CCCCC1	7.42
CCCN1CCC[C@@H]1C(=O)NC12CC3CC(CC(C3)C1)C2	8.92
CC1(C)CC(NC(=O)C2COCCN2Cc2ccccc2)CC(C)(C)C1 (centres unmarked)	9.00
CCN1CCOC[C@@H]1C(=O)NC1C2CC3CC(C2)CC1C3 (some centres unmarked)	8.68
CCOc1ccccc1CNC(=O)[C@H]1COCCN1CC(C)C	7.65
O=C(NC1CCCCC1)[C@H]1CCCN1CC1CCOCC1	8.10
CCCN1CCC[C@@H]1C(=O)NC1(C)CCCCC1	8.22
O=C(NC1C2CC3CC(C2)CC1C3)[C@H]1COCCN1Cc1ccccn1 (some centres unmarked)	9.00
CC(C)CN1C[C@H](O)C[C@@H]1C(=O)NC1CCCCC1	7.41
O=C(NCC1(O)CCCCCC1)[C@H]1CCCN1CC1CCCC1	8.70
CCCN1CCC[C@@H]1C(=O)NCC1CCCC1	7.96
CCOc1ccccc1CNC(=O)[C@H]1CCCN1CC(C)C	8.34
CN(C)CCN1CCC[C@@H]1C(=O)NC1C2CC3CC(C2)CC1C3 (some centres unmarked)	8.70
CCCN1CCC[C@@H]1C(=O)NC1CCCCCC1	8.70
N#Cc1ccc(CN2CCC[C@@H]2C(=O)NC2CCCCC2)cc1	8.34
CCCN1CCOC[C@@H]1C(=O)NC1C2CC3CC(C2)CC1C3 (some centres unmarked)	8.59
O=C(NC12CC3CC(CC(C3)C1)C2)[C@H]1CCCN1Cc1ccc(Cl)cc1	9.07

----------
# log10 Ki per entry
- System tested: human 11b-hsd-1 (Homo sapiens, UniProt P28845)
- Measurement protocol: Inhibition constant Ki of human 11b-hsd-1 (3H-cortisone to 3H-cortisol conversion, HPLC)
- Assay type: biochemical
- Stated conditions: apparent Ki; read-out: Ki app
Recorded endpoint: log10 Ki (log10 of the value in nM)

Molecule	log10 Ki
O=C(N[C@@H]1CCCc2ccccc21)[C@H]1CCCN1CC1CCCC1	0.35
CC(C)CN1CCC[C@@H]1C(=O)N[C@H](C)c1ccc(Cl)cc1	0.25
O=C(NCc1ccc(F)cc1)[C@H]1CCCN1CC1CCCC1	1.73
CCc1ccccc1O[C@@H]1CN[C@H](C(=O)NC2C3CC4CC(C3)CC2C4)C1 (stereo partly shown)	0.34
CC(C)CN1CCOC[C@@H]1C(=O)N[C@@H]1CCCc2ccccc21	1.04
Cc1cccc(O[C@@H]2CN[C@H](C(=O)NC3C4CC5CC(C4)CC3C5)C2)c1 (stereo partly shown)	0.43
COc1ccccc1CNC(=O)[C@H]1CCCN1CC1CCCC1	1.40
CCC1CCCCN1C(=O)[C@H]1CSCN1Cc1ccc(Cl)cc1 (stereo partly shown)	0.40
O=C(NCc1ccccc1F)[C@H]1CCCN1CCC(F)(F)F	1.68
CCC1CCCCN1C(=O)[C@H]1CCCN1Cc1ccc(Cl)cc1 (stereo partly shown)	1.70
CCCN1CCC[C@@H]1C(=O)NCc1ccc(OC)cc1	3.40
CC(C)CN1CCOC[C@@H]1C(=O)NC1CCCCC1	0.34
O=C(NC1C2CC3CC(C2)CC1C3)[C@@H]1C[C@H](Oc2ccc(F)cc2)CN1 (stereo partly shown)	0.00
CC(C)CN1CCC[C@@H]1C(=O)NC1Cc2ccccc2C1	0.08
O=C(N[C@@H]1CCCc2ccccc21)[C@H]1COCCN1Cc1ccccc1	0.69
N#Cc1cccc(CN2CCOC[C@@H]2C(=O)NC2C3CC4CC(C3)CC2C4)c1 (stereo partly shown)	0.18
O=C(N[C@@H]1CCc2ccccc21)[C@H]1COCCN1Cc1ccccc1	0.56
COc1cccc(CNC(=O)[C@H]2CCCN2CC2CCCC2)c1	1.78
O=C(NCc1ccc(F)cc1)[C@H]1CCCN1CCC(F)(F)F	1.84

Source of measurements: patent US20050261290A1
